biological target: T1, recombinant biotinylated CD71 extracellular domain (Sino Biologics) with an N-terminal 6His tag (human, UniProt P02786 89-760, biotinylated (sites not given)); assay: screening ELISA
T1 construct: extracellular domain; also called hCD71; huCD71
T1 sequence (P02786 other isoform, or with tags, fused parts or gaps): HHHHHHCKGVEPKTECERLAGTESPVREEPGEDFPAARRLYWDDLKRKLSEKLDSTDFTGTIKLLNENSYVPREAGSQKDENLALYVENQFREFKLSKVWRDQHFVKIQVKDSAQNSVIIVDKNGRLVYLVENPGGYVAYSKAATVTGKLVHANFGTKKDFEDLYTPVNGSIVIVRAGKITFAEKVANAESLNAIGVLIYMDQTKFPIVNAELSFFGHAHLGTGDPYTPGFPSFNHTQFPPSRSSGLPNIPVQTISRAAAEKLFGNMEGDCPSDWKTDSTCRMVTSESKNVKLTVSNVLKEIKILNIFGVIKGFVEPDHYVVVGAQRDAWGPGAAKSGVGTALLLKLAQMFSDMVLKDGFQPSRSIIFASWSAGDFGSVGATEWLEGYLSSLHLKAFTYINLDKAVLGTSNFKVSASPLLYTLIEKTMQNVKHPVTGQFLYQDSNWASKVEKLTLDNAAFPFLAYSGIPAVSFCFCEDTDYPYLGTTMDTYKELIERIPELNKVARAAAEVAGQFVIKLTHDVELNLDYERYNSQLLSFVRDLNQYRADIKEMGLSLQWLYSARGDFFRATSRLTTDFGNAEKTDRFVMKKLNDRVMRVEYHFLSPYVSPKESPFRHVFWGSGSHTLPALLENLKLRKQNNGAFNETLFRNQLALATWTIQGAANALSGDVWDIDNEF
Endpoint Name: hCD71

binder="SEQ ID NO 289 (designed binder, FN3 domain) MLPAPKNLVVSRVTEDSARLSWTAPDAAFDSFAIPYYEDTNDGEAIVLTVPGSERSYDLTGLKPGTEYWVSIQGVKGGTVSGPLSAIFTT" meas_value=2.27e+06

a: SEQ ID NO 256 (designed binder, FN3 domain) MLPAPKNLVVSRVTEDSARLSWTAPDAAFDSFHIVYHEPRPSGEAIVLTVPGSERSYDLTGLKPGTEYEVGIVGVKGGDLSVPLSAIFTT
b: SEQ ID NO 283 (designed binder, FN3 domain) MLPAPKNLVVSRVTEDSARLSWTAPDAAFDSFPIAYAEPRPDGEAIVLTVPGSERSYDLTGLKPGTEYSVLIHGVKGGLLSSPLSAIFTT
Ask: // returns a or b , whichever has the lower hCD71 Lab log: write the label of the selected item as the result.
Result: a
(a: 1.98e+06, b: 2.95e+06)
